target: KRAS WT (Homo sapiens, UniProt P01116); assay: HTRF KRAS-SOS1 interaction assay, wildtype KRAS; conditions: binned ≤2 μM / >2 μM, read-out: Inhibition of KRAS WT (IC50)
Sequence (P01116 1-188 isoform P01116-2): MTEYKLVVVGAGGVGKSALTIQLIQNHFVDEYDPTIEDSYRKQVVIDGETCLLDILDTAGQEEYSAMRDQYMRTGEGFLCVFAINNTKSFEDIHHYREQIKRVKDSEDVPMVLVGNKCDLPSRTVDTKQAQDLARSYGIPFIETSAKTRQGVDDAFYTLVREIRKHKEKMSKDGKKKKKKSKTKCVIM

[
  {
    "compound": "CO[C@H]1CCN(C)[C@@H]1[C@H](C)Oc1nc2c3c(c(C(F)(F)F)c(-c4ccc(F)c5sc(N)c(C#N)c45)c(F)c3n1)OCCN2[C@H](C)c1cc(F)cnc1N",
    "IC50": "≤ 2 µM"
  },
  {
    "compound": "C[C@H](c1cccnc1N)N1CCOc2c(Cl)c(-c3ccc(F)c4sc(N)c(C#N)c34)c(F)c3nc(OC[C@@]45CCCN4C[C@H](F)C5)nc1c23",
    "IC50": "≤ 2 µM"
  },
  {
    "compound": "C[C@H](c1cccnc1N)N1CCOc2c(C(F)(F)F)c(-c3cccc4sc(N)c(C#N)c34)c(F)c3nc(OC[C@@]45CCCN4C[C@H](F)C5)nc1c23 (single isomer, unassigned)",
    "IC50": "≤ 2 µM"
  }
]
